Entries and their measured pKd follow.
STUDY TARGET: GST-BCL-2δC21 fusion protein [GST: P08515]
MEASUREMENT PROTOCOL: fluorescence polarization, 25 nM fluorescein-peptide titrated with GST-BCL-2, 37 C
pKd: −log10 of the molar value. Ends that are not written are not given here.

>>> result("VIPMAAVKQALREAGDEFEL (fluorescein at the amino-terminus via an AHA linker in the Kd assays; unlabelled as competitor and on mitochondria) [BCLXBH3]")
"< 6.00"

Query block: So what's the measured pKd for this one? EDIIRNIARHAAQVGASMDR (not fully specified) [BIDBH3 mut]
Result block: < 6.00
